// reported pIC50 per item
- measurement target: human recombinant COX2 (hCOX2)
- test description: LCMS-based COX2 enzymatic inhibition assay (PGE2 quantification)
- Format: biochemical
- Parameters: COX2 2 minutes pge2/pge2d4 area ratio Avg; other: 2 minutes; readout pge2/pge2d4 area ratio; average; COX2 2 minutes pge2/pge2d4 area ratio Avg; LLE; average LLE; COX2 2 minutes pge2 area (counts) Avg; readout pge2 area (counts); other: 2 min; "ovine COX2 (oCOX2), human recombinant COX2 (hCOX2)"
- setup conditions: 2 minutes; readout pge2/pge2d4 area ratio; average; read-out: COX2 2 minutes pge2/pge2d4 area ratio Avg. IC50
pIC50: −log10 of the molar value.

{"compound": "CS(=O)(=O)c1ccc(-c2ccc3ncn(Cc4cccs4)c3n2)cc1 [Compound 155]", "pIC50": 6.49}
{"compound": "Cc1ncc(NCc2cccs2)nc1-c1ccc(S(C)(=O)=O)cc1 [Compound 103]", "pIC50": 7.05}
{"compound": "COc1cc(NCc2cccs2)nc(-c2ccc(S(C)(=O)=O)cc2)c1 [Compound 50]", "pIC50": 7.64}
{"compound": "CC(=O)c1ncc(-c2ccc(S(C)(=O)=O)cc2)nc1NCc1cccs1 [Compound 207]", "pIC50": 5.88}
{"compound": "CS(=O)(=O)c1ccc(-c2cncc(OC[C@H]3CCCS3)n2)cc1 (single isomer, unassigned) [Compound 198]", "pIC50": 6.02}
{"compound": "COc1ccc(-c2ccc(S(C)(=O)=O)cc2)nc1NCc1cccs1 [Compound 160]", "pIC50": 6.41}
{"compound": "CS(=O)(=O)c1ccc(-c2cnc(C(N)=O)c(NCc3cccs3)n2)cc1 [Compound 219]", "pIC50": 5.79}
{"compound": "CS(=O)(=O)c1ccc(-c2cnc3ccn(Cc4cccs4)c3n2)cc1 [Compound 74]", "pIC50": 7.36}
{"compound": "CS(=O)(=O)c1ccc(-c2cccc(NCc3cncs3)n2)cc1 [Compound 99]", "pIC50": 7.11}

---

// reported Rat Plasma Protein Stability % Remaining Avg per item
- test description: Rat Plasma Protein Stability (% Remaining)
- Format: in vitro ADME
- setup conditions: average
measured parameter: Rat Plasma Protein Stability % Remaining Avg (%)

{"compound": "CS(=O)(=O)c1ccc(-c2ccc(F)c(NCc3ccco3)n2)cc1 [Compound 15]", "test result": 127}
{"compound": "CS(=O)(=O)c1ccc(-c2cc(F)cc(NCc3ccco3)n2)cc1 [Compound 14]", "test result": 104}
{"compound": "CS(=O)(=O)c1ccc(-c2cccc(OCc3ccco3)n2)cc1 [Compound 28]", "test result": 102.8}
{"compound": "CS(=O)(=O)c1ccc(-c2cccc(OCc3cccs3)n2)cc1 [Compound 1]", "test result": 100}
{"compound": "CS(=O)(=O)c1ccc(-c2cccc(/C=C\\c3cccs3)n2)cc1 [Compound 41]", "test result": 100}
{"compound": "CS(=O)(=O)c1ccc(-c2ccc(F)c(NCc3ccoc3)n2)cc1 [Compound 33]", "test result": 128}
{"compound": "CS(=O)(=O)c1ccc(-c2cccc(NCc3ccc(F)cc3)n2)cc1 [Compound 13]", "test result": 101}

---

- test description: Rat Plasma Protein Stability (% Remaining)
- Type: in vitro ADME
- setup conditions: average
// reported Rat Plasma Protein Stability % Remaining Avg per item
measured parameter: Rat Plasma Protein Stability % Remaining Avg (%)

{"smiles record": "CS(=O)(=O)c1ccc(-c2cncc(OCc3cccs3)n2)cc1", "test result": 91.1}
{"smiles record": "COc1ncc(NCc2cccs2)nc1-c1ccc(S(C)(=O)=O)cc1", "test result": 114.5}
{"smiles record": "CS(=O)(=O)c1ccc(-c2cccc(NCc3cccs3)n2)cc1", "test result": 105.1}
{"smiles record": "CS(=O)(=O)c1ccc(-c2cccc(NCc3ccc(F)o3)n2)cc1", "test result": 104}
{"smiles record": "CS(=O)(=O)c1ccc(-c2cncc(SCc3ccoc3)n2)cc1", "test result": 95}
{"smiles record": "COc1ncc(NCc2ccco2)nc1-c1ccc(S(C)(=O)=O)cc1", "test result": 107.3}
{"smiles record": "CS(=O)(=O)c1ccc(-c2cccc(/C=C\\c3ccoc3)n2)cc1", "test result": 94.1}
{"smiles record": "CS(=O)(=O)c1ccc(-c2cc(F)cc(NCc3ccoc3)n2)cc1", "test result": 115}
{"smiles record": "CS(=O)(=O)c1ccc(-c2nc(OCc3cccs3)cc3ccoc23)cc1", "test result": 99}
{"smiles record": "COc1ccc(NCc2cccs2)nc1-c1ccc(S(C)(=O)=O)cc1", "test result": 100}
{"smiles record": "Cc1occc1CNc1cccc(-c2ccc(S(C)(=O)=O)cc2)n1", "test result": 100}
{"smiles record": "CS(=O)(=O)c1ccc(-c2nc(NCc3cccs3)cc3ccoc23)cc1", "test result": 98}
{"smiles record": "CS(=O)(=O)c1ccc(-c2nc(NCc3ccoc3)ccc2F)cc1", "test result": 128}
{"smiles record": "COc1ncc(NCc2ccoc2)nc1-c1ccc(S(C)(=O)=O)cc1", "test result": 104.6}
{"smiles record": "Cc1cc(CNc2cccc(-c3ccc(S(C)(=O)=O)cc3)n2)co1", "test result": 99.7}
{"smiles record": "CS(=O)(=O)c1ccc(-c2cccc(NCc3ccco3)n2)cc1", "test result": 102.8}
{"smiles record": "CS(=O)(=O)c1ccc(-c2cccc(OCc3ccsc3)n2)cc1", "test result": 121}
{"smiles record": "CS(=O)(=O)c1ccc(-c2cccc(OCc3ccoc3)n2)cc1", "test result": 97.9}
{"smiles record": "CS(=O)(=O)c1ccc(-c2cccc(NCc3ccoc3)n2)cc1", "test result": 105.1}

---

// reported pIC50 per item
- measurement target: ovine COX-1 (oCOX-1) (Ovis aries, UniProt P05979)
- Construct: purchased Cayman Chemicals (Ann Arbor, Mich.)
- Sequence (P05979 25-600): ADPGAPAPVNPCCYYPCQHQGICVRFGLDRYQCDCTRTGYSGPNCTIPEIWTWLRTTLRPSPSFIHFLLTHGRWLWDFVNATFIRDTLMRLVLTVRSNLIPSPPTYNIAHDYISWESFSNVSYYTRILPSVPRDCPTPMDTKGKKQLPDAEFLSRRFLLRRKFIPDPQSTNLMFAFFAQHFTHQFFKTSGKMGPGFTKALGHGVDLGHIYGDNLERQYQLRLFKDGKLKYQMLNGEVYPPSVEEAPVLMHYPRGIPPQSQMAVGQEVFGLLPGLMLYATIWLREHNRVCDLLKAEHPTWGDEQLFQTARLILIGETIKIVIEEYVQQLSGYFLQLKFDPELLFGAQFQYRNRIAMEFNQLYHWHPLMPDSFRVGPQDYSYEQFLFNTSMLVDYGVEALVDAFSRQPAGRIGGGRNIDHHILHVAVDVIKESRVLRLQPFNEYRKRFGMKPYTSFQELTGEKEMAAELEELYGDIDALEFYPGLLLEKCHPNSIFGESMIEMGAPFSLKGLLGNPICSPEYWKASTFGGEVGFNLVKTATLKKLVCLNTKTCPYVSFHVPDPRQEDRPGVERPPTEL
- test description: LCMS-based COX-1 enzymatic inhibition assay (PGE2 quantification)
- Format: biochemical
- setup conditions: 10 minutes; readout pge2 area (counts); average; read-out: COX1 10 minutes pge2 area (counts) Avg. IC50
pIC50: −log10 of the molar value.

{"compound": "CS(=O)(=O)c1ccc(-c2cncc(SCc3cccs3)n2)cc1", "pIC50": 5.35}
{"compound": "CS(=O)(=O)c1ccc(-c2cc(F)cc(OCc3cccs3)n2)cc1", "pIC50": 5.52}
{"compound": "C[C@H](Oc1cncc(-c2ccc(S(C)(=O)=O)cc2)n1)c1cccs1 (single isomer, unassigned)", "pIC50": 4.93}
{"compound": "Cc1csc(COc2cncc(-c3ccc(S(C)(=O)=O)cc3)n2)c1", "pIC50": 5.25}
{"compound": "CS(=O)(=O)c1ccc(-c2cc(F)cc(NCc3ccoc3)n2)cc1", "pIC50": 4.54}
{"compound": "CS(=O)(=O)c1ccc(-c2nc(NCc3cccs3)cc3ccoc23)cc1", "pIC50": 4.30}
{"compound": "COc1ncc(NCc2ccoc2)nc1-c1ccc(S(C)(=O)=O)cc1", "pIC50": 4.42}
{"compound": "CS(=O)(=O)c1ccc(-c2cccc(NCc3cccs3)n2)cc1", "pIC50": 4.48}
{"compound": "CS(=O)(=O)c1ccc(-c2cccc(OCc3cccs3)n2)cc1", "pIC50": 4.86}

---

- test description: Rat Microsome Stability
- Type: in vitro ADME
- setup conditions: rat microsomes

{"smiles record": "CS(=O)(=O)c1ccc(-c2cccc(NCc3ccoc3)n2)cc1", "Rat Microsome Stability % Remaining Avg [%]": 8.2}
{"smiles record": "COc1ccc(NCc2cccs2)nc1-c1ccc(S(C)(=O)=O)cc1", "Rat Microsome Stability % Remaining Avg [%]": 0.2}
{"smiles record": "COc1ncc(NCc2ccoc2)nc1-c1ccc(S(C)(=O)=O)cc1", "Rat Microsome Stability % Remaining Avg [%]": 5.3}

---

- measurement target: human recombinant COX2 (hCOX2)
- Sequence (P35354 1-604): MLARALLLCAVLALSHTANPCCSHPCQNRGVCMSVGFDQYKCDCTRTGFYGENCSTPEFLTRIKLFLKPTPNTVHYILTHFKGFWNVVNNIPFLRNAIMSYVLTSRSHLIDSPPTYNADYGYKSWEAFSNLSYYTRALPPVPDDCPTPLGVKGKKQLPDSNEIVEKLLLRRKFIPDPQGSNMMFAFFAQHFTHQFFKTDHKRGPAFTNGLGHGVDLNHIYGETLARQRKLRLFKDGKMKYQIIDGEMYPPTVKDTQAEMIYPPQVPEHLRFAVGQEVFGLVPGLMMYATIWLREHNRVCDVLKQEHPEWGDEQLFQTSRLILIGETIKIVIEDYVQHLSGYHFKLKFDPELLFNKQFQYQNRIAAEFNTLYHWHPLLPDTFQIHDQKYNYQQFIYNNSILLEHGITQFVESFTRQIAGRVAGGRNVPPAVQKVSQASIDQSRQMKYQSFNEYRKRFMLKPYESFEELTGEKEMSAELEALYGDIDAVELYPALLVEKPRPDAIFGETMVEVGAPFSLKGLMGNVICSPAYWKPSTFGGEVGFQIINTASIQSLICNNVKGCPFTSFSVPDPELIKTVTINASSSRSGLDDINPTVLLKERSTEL
- test description: LCMS-based COX2 enzymatic inhibition assay (PGE2 quantification)
- Assay type: biochemical
- Design: COX2 2 minutes pge2/pge2d4 area ratio Avg; other: 2 minutes; readout pge2/pge2d4 area ratio; average; COX2 2 minutes pge2/pge2d4 area ratio Avg; LLE; average LLE; COX2 2 minutes pge2 area (counts) Avg; readout pge2 area (counts); other: 2 min; "ovine COX2 (oCOX2), human recombinant COX2 (hCOX2)"
- setup conditions: 2 minutes; readout pge2/pge2d4 area ratio; average; read-out: COX2 2 minutes pge2/pge2d4 area ratio Avg. IC50
pIC50: −log10 of the molar value.
Decision: pIC50 compared against 7; not below it gives condition met, below it gives condition not met.

{"compound": "C[C@H](Oc1cncc(-c2ccc(S(C)(=O)=O)cc2)n1)c1cccs1 (single isomer, unassigned) [Compound 53]", "qualitative label": "condition met"}
{"compound": "CS(=O)(=O)c1ccc(-c2nc3cnn(Cc4cccs4)c3[nH]2)cc1 [Compound 256]", "qualitative label": "condition not met"}
{"compound": "CS(=O)(=O)c1ccc(-c2ccc3cnn(Cc4cccs4)c3n2)cc1 [Compound 63]", "qualitative label": "condition met"}
{"compound": "Cn1nccc1CNc1cccc(-c2ccc(S(C)(=O)=O)cc2)n1 [Compound 197]", "qualitative label": "condition not met"}
{"compound": "CS(=O)(=O)c1ccc(-c2cncc(SCc3cnco3)n2)cc1 [Compound 226]", "qualitative label": "condition not met"}
